Can you tell me IC50 for the items I'm about to list?
Please give a number only; it is taken to be in nM.

Sample CCCCN1C(=O)C(=NNC(=O)c2c(C)nc3sccn23)c2ccccc21 , system: VEGFR-2 (Homo sapiens). Its IC50 is 330

Sample CCCCN1C(=O)C(=NNC(=O)c2c(C)nc3sccn23)c2cc(F)ccc21 , system: VEGFR-2 (Homo sapiens). Its IC50 is 1510

----------
Test system: MCF-7 breast cell line
Test: MTT assay, anti-proliferative activity toward MCF-7
Format: cell-based
Conditions: Homo sapiens, MCF7; MCF-7 cell line, MTT assay, mean ± SD of three experiments; read-out: IC50
REPORTED_ENDPOINT: pIC50
Schema: pIC50 number; meaning minus log10 of the concentration expressed in molar units.

Recorded result, Cc1nc2sccn2c1NC(=O)Nc1ccc(S(N)(=O)=O)cc1 [Compound 8g] , pIC50: 4.38

Recorded result, Cc1nc2sccn2c1C(=O)NN=C1C(=O)Nc2ccc(Br)cc21 [Compound 6d] , pIC50: 4.64

Recorded result, Cc1nc2sccn2c1NC(=O)Nc1ccc(Br)cc1 [Compound 8f] , pIC50: 4.51

Recorded result, Cc1nc2sccn2c1C(=O)NN=C1C(=O)Nc2ccc(F)cc21 [Compound 6b] , pIC50: 4.94

Recorded result, COc1ccc(NC(=O)Nc2c(C)nc3sccn23)cc1 [Compound 8c] , pIC50: 3.97

----------
Tested on: MCF-7 breast cell line
Test: MTT assay, anti-proliferative activity toward MCF-7
Type: cell-based
Settings: Homo sapiens, MCF7; MCF-7 cell line, MTT assay, mean ± SD of three experiments; read-out: IC50
REPORTED_ENDPOINT: pIC50
Schema: pIC50 number; meaning minus log10 of the concentration expressed in molar units.

Recorded result, Cc1nc2sccn2c1NC(=O)Nc1ccccc1 , pIC50: 3.96

Recorded result, Cc1nc2sccn2c1NC(=O)Nc1ccc(Cl)cc1 , pIC50: 4.45

Recorded result, Cc1ccc(NC(=O)Nc2c(C)nc3sccn23)cc1 , pIC50: 3.94

----------
Can you tell me melting point for the items I'm about to list?

Recorded result, CCCCN1C(=O)/C(=N\NC(=O)c2c(C)nc3sccn23)c2cc(Br)ccc21 , melting point: 237 to 238 °C

Recorded result, CCCN1C(=O)C(=NNC(=O)c2c(C)nc3sccn23)c2ccccc21 , melting point: 256 to 257 °C

Recorded result, Cc1nc2sccn2c1C(=O)NN=C1C(=O)Nc2ccc(Cl)cc21 , melting point: 292 to 293 °C

Recorded result, COc1ccc(NC(=O)Nc2c(C)nc3sccn23)cc1 , melting point: 284 to 285 °C

Recorded result, Cc1nc2sccn2c1C(=O)NN=C1C(=O)Nc2ccc(F)cc21 , melting point: > 300 °C

Recorded result, Cc1ccc(NC(=O)Nc2c(C)nc3sccn23)cc1 , melting point: 282 to 283 °C

Recorded result, CCCN1C(=O)C(=NNC(=O)c2c(C)nc3sccn23)c2cc(F)ccc21 , melting point: 243 to 244 °C

Recorded result, CCCCN1C(=O)C(=NNC(=O)c2c(C)nc3sccn23)c2cc(F)ccc21 , melting point: 237 to 238 °C

Recorded result, Cc1nc2sccn2c1NC(=O)Nc1ccc(Cl)cc1 , melting point: 285 to 286 °C

Recorded result, Cc1nc2sccn2c1NC(=O)Nc1ccc(F)cc1 , melting point: 281 to 282 °C

Recorded result, Cc1nc2sccn2c1C(=O)NN=C1C(=O)Nc2ccc(Br)cc21 , melting point: 296 to 297 °C

Recorded result, CCCN1C(=O)C(=NNC(=O)c2c(C)nc3sccn23)c2cc(Cl)ccc21 , melting point: 254 to 255 °C

Recorded result, CCCCN1C(=O)C(=NNC(=O)c2c(C)nc3sccn23)c2ccccc21 , melting point: 250 to 251 °C

Recorded result, CCCCN1C(=O)C(=NNC(=O)c2c(C)nc3sccn23)c2cc(Cl)ccc21 , melting point: 224 to 225 °C

Recorded result, Cc1nc2sccn2c1C(=O)NN=C1C(=O)Nc2ccccc21 , melting point: > 300 °C

Recorded result, CCCN1C(=O)C(=NNC(=O)c2c(C)nc3sccn23)c2cc(Br)ccc21 , melting point: 261 to 262 °C

Recorded result, Cc1nc2sccn2c1NC(=O)Nc1ccccc1 , melting point: 287 to 288 °C

Recorded result, Cc1nc2sccn2c1NC(=O)Nc1ccc(Br)cc1 , melting point: 288 to 289 °C

Recorded result, Cc1nc2sccn2c1NC(=O)Nc1ccc(S(N)(=O)=O)cc1 , melting point: 283 to 284 °C

----------
System: MCF-7 breast cell line
Assay: MTT assay, anti-proliferative activity toward MCF-7
Type: cell-based
Details: Homo sapiens, MCF7; MCF-7 cell line, MTT assay, mean ± SD of three experiments; read-out: IC50
REPORTED_ENDPOINT: pIC50
Schema: pIC50 number; meaning minus log10 of the concentration expressed in molar units.

Recorded result, CNC(=O)c1cc(Oc2ccc(NC(=O)Nc3ccc(Cl)c(C(F)(F)F)c3)cc2)ccn1 [Sorafenib (I), Sorafenib, reference compound] , pIC50: 5.12

Recorded result, Cc1nc2sccn2c1C(=O)NN=C1C(=O)Nc2ccc(Cl)cc21 [Compound 6c] , pIC50: 4.37

Recorded result, Cc1nc2sccn2c1NC(=O)Nc1ccc(F)cc1 [Compound 8d] , pIC50: 4.14

Recorded result, Cc1nc2sccn2c1C(=O)NN=C1C(=O)Nc2ccccc21 [Compound 6a] , pIC50: 4.62

----------
Test system: MCF-7 breast cell line
Assay: MTT assay, anti-proliferative activity toward MCF-7
Format: cell-based
Details: Homo sapiens, MCF7
Procedure: . The developed compounds were evaluated in vitro using the MTT cell viability assay following the published techniques (Supplementary Data, page 42). […] The 96 well tissue culture plate was seeded with 1 X 10^5 cells / ml (100 ul / well) and cultured at 37 degrees Celsius for 24 hours to form a full monolayer sheet. […] The plate was incubated at 37 degrees Celsius and then analyzed. […]
REPORTED_ENDPOINT: IC50 (µM)
Please give a number only; it is taken to be in µM.

Recorded result, CCCCN1C(=O)C(=NNC(=O)c2c(C)nc3sccn23)c2ccccc21 [Compound 6i] , IC50: 8.38

Recorded result, CCCCN1C(=O)C(=NNC(=O)c2c(C)nc3sccn23)c2cc(F)ccc21 [Compound 6j] , IC50: 11.7

Recorded result, CCCCN1C(=O)/C(=N\NC(=O)c2c(C)nc3sccn23)c2cc(Br)ccc21 [Compound 6l] , IC50: 52.6

Recorded result, CCCN1C(=O)C(=NNC(=O)c2c(C)nc3sccn23)c2cc(F)ccc21 [Compound 6f] , IC50: 82.5

Recorded result, CCCN1C(=O)C(=NNC(=O)c2c(C)nc3sccn23)c2cc(Br)ccc21 [Compound 6h] , IC50: 74.3

Recorded result, CCCN1C(=O)C(=NNC(=O)c2c(C)nc3sccn23)c2ccccc21 [Compound 6e] , IC50: 61.4

Recorded result, CCCN1C(=O)C(=NNC(=O)c2c(C)nc3sccn23)c2cc(Cl)ccc21 [Compound 6g] , IC50: 52.5

Recorded result, CCCCN1C(=O)C(=NNC(=O)c2c(C)nc3sccn23)c2cc(Cl)ccc21 [Compound 6k] , IC50: 42.7

----------
Can you tell me pIC50 for the items I'm about to list?
Tested on: MCF-10A
Assay: MTT assay, cytotoxicity toward MCF-10A
Type: cell-based
Settings: Homo sapiens
Schema: pIC50 number; meaning minus log10 of the concentration expressed in molar units.

Recorded result, CCCCN1C(=O)C(=NNC(=O)c2c(C)nc3sccn23)c2cc(F)ccc21 [Compound 6j] , pIC50: 4.32

Recorded result, CCCCN1C(=O)C(=NNC(=O)c2c(C)nc3sccn23)c2ccccc21 [Compound 6i] , pIC50: 4.26
